System: Bacteroides caccae
Test: growth AUC relative to DMSO control (median of replicates) (fraction); higher = more growth (less inhibition), active = hit call of the paper
Conditions: 20 µM; 24 h

- compound: "C=C/C=C/CC1=C(C)C(OC(=O)[C@@H]2C(/C=C(\\C)C(=O)OC)C2(C)C)CC1=O.C=C/C=C/CC1=C(C)[C@@H](OC(=O)[C@@H]2C(C=C(C)C)C2(C)C)CC1=O (stereo partly drawn)"
  growth AUC: 0.966
- compound: "CCCCOC(=O)N(C)SN(C)C(=O)Oc1cccc2c1OC(C)(C)C2"
  growth AUC: 1.02
- compound: "CCc1cccc(C)c1N(C(=O)CCl)C(C)COC (stereo not drawn)"
  growth AUC: 0.884
- compound: "CCCCN(CCCC)N=O"
  growth AUC: 1.01
- compound: "COCC(=O)N(c1c(C)cccc1C)N1CCOC1=O"
  growth AUC: 0.969
- compound: "Nc1cnn(-c2ccccc2)c(=O)c1Cl"
  growth AUC: 1.01
- compound: "COC(=O)N(C(=O)N1CO[C@@]2(C(=O)OC)Cc3cc(Cl)ccc3C2=N1)c1ccc(OC(F)(F)F)cc1"
  growth AUC: 0.952
- compound: "CNC(=O)Oc1cc(C)c(SC)c(C)c1"
  growth AUC: 0.934

----------
Catalogue of growth AUC values
System: Odoribacter splanchnicus
Assay: growth AUC relative to DMSO control (median of replicates) (fraction); higher = more growth (less inhibition), active = hit call of the paper
Conditions: 20 µM; 24 h

- compound: "CC(C)NC(=O)N1CC(=O)N(c2cc(Cl)cc(Cl)c2)C1=O"
  growth AUC: 1
- compound: "C=CCN=C=S"
  growth AUC: 1
- compound: "ClC1=C(Cl)[C@]2(Cl)C3CC=CC3[C@@]1(Cl)C2(Cl)Cl (some centres undefined)"
  growth AUC: 0.987
- compound: "CN(C)NC(=O)CCC(=O)O"
  growth AUC: 0.989

----------
System: Bacteroides thetaiotaomicron
Test: growth AUC relative to DMSO control (median of replicates) (fraction); higher = more growth (less inhibition), active = hit call of the paper;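 active = AUC reduced over 20% with Padj below 0.05 in at least 2 of 3 replicates; inactive = otherwise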
Details: 20 µM; 24 h
Outcomes: true (1) (active), false (0) (inactive)

- molecule: "COP(=O)(OC)O/C(=C\\Cl)c1ccc(Cl)cc1Cl"
  assigned_class: "false (0)"
- molecule: "Fc1ccc(C2(Cn3cncn3)OC2c2ccccc2Cl)cc1 (centres undefined)"
  assigned_class: "false (0)"
- molecule: "O=C(NC(=O)c1c(F)cccc1F)Nc1cc(Cl)c(OC(F)(F)C(F)F)c(Cl)c1"
  assigned_class: "false (0)"
- molecule: "Cc1cc(Cl)ccc1OCC(=O)O"
  assigned_class: "false (0)"
- molecule: "CC(C)Nc1nc(Cl)nc(NC(C)C)n1"
  assigned_class: "false (0)"
- molecule: "CNc1nc(C)c(C)c(OC(=O)N(C)C)n1"
  assigned_class: "false (0)"
- molecule: "O=C(O)c1cc(Oc2ccc(C(F)(F)F)cc2Cl)ccc1[N+](=O)[O-]"
  assigned_class: "false (0)"
- molecule: "O=c1oc2ccccc2c(O)c1C1CC(c2ccc(-c3ccc(Br)cc3)cc2)Cc2ccccc21 (centres undefined)"
  assigned_class: "true (1)"
- molecule: "O=C(O)C(Cl)Cl"
  assigned_class: "false (0)"
- molecule: "CCOP(=O)(N=C1SCC(C)S1)OCC (centres undefined)"
  assigned_class: "false (0)"
- molecule: "Cc1ccc(NC(=O)N(C)C)cc1Cl"
  assigned_class: "false (0)"
- molecule: "ClC1=C(Cl)C2(Cl)C(CBr)CC1(Cl)C2(Cl)Cl (centres undefined)"
  assigned_class: "false (0)"
- molecule: "Oc1cc(Cl)c(Cl)cc1Cl"
  assigned_class: "false (0)"
- molecule: "CCOP(=S)(OCC)Oc1nc(Cl)n(C(C)C)n1"
  assigned_class: "false (0)"
- molecule: "N#CCNC(=O)c1cnccc1C(F)(F)F"
  assigned_class: "false (0)"
- molecule: "Cc1cc(Cl)ccc1N=CN(C)C.Cl"
  assigned_class: "false (0)"
- molecule: "Cc1ccc2nc3sc(=O)sc3nc2c1"
  assigned_class: "false (0)"
- molecule: "CCOP(=S)(OCC)SCS(=O)CC (centres undefined)"
  assigned_class: "false (0)"
- molecule: "CC1CCCCC1NC(=O)Nc1ccccc1 (mixture of isomers)"
  assigned_class: "false (0)"
- molecule: "Oc1c(Cl)c(Cl)cc(Cl)c1Cl"
  assigned_class: "false (0)"
- molecule: "CC(C)N(C(=O)SCC(Cl)=C(Cl)Cl)C(C)C"
  assigned_class: "false (0)"
- molecule: "COCc1cnc(C2=NC(C)(C(C)C)C(=O)N2)c(C(=O)O)c1 (centres undefined)"
  assigned_class: "false (0)"
- molecule: "Cc1cc(C)nc(Nc2ccccc2)n1"
  assigned_class: "false (0)"
- molecule: "CCCCCCCCCCCCC1=C(OC(C)=O)C(=O)c2ccccc2C1=O"
  assigned_class: "false (0)"
- molecule: "CC(C)OC(=O)C(C(=O)OC(C)C)=C1SCCS1"
  assigned_class: "false (0)"
- molecule: "CCOC(=O)CCN(Cc1ccccc1)SN(C)C(=O)O/N=C(/C)SC"
  assigned_class: "false (0)"
- molecule: "COc1cc(OC)nc(NC(=O)[N-]S(=O)(=O)c2ncccc2OCC(F)(F)F)n1.[Na+]"
  assigned_class: "true (1)"
- molecule: "COP1(=S)OCc2ccccc2O1 (centres undefined)"
  assigned_class: "false (0)"
- molecule: "Cc1ccc(-c2c(Cl)nc(C#N)n2S(=O)(=O)N(C)C)cc1"
  assigned_class: "false (0)"
- molecule: "CCCCCCCC(=O)Oc1c(I)cc(C#N)cc1I"
  assigned_class: "false (0)"
- molecule: "COP(=S)(OC)Oc1ccc(SC)c(C)c1"
  assigned_class: "false (0)"
- molecule: "CCNc1nc(NCC)nc(SC)n1"
  assigned_class: "false (0)"
- molecule: "CCS(=O)c1c(C#N)nn(-c2c(Cl)cc(C(F)(F)F)cc2Cl)c1N (centres undefined)"
  assigned_class: "false (0)"
- molecule: "CCOP(=S)(OCC)SCSc1ccc(Cl)cc1"
  assigned_class: "false (0)"
